The origin of these recorded values is ChEMBL document CHEMBL5584344.

Experiment: Drug concentration in Sprague-Dawley rat brain at 15 mg/kg, po measured after 0.5 hrs by LC-MS analysis
Format: ADME, organism-based
Details: read-out: Ct
Measured Metric: concentration at 0.5 h (ng/mL)
Kindly provide the numeric value in ng/mL only, without the unit symbol.

Looking up Cc1ccccc1CN1C(=O)C2=C(CCN(Cc3ccccc3)C2)N2CCN=C12 [DORDAVIPRONE] , I see its concentration at 0.5 h listed as 139

Recorded concentration at 0.5 h (compound O=c1c2c(n3ccnc3n1Cc1ccc(C(F)(F)F)cc1)CCN(Cc1cccc(Cl)c1)C2 ): 336

* * *

System: HCT-116
Experiment: Antiproliferative activity against human HCT-116 cells assessed as inhibition of cell growth incubated for 72 hrs by CCK-8 method
Assay type: functional, cell-based
Conditions: HCT-116, 72 h
Recorded log10 IC50 by entry
Please interpret these as log10 of IC50 where IC50 is in nM.

| Item Smiles | Measured Metric | Result Value |
| --- | --- | --- |
| O=c1c2c(n3ccnc3n1Cc1ccccc1)CCN(Cc1cccc(F)c1)C2 | log10 IC50 | 2.65 |
| O=c1c2c(n3ccnc3n1Cc1ccc(Br)cc1)CCN(Cc1ccccc1)C2 | log10 IC50 | 2.28 |

log10 IC50 for O=c1c2c(n3ccnc3n1Cc1ccccc1)CCN(Cc1cccc(Cl)c1)C2 is 2.61

log10 IC50 for O=c1c2c(n3ccnc3n1Cc1ccccc1)CCN(Cc1ccccc1)C2 is 3.43

# log10 IC50 of O=c1c2c(n3ccnc3n1Cc1ccc(F)cc1)CCN(Cc1ccccc1)C2 = 2.74
